Molecular target: STAT3 (Homo sapiens)
Construct: plasmid pSTAT3-TA-luc), which contains a stably operating STAT3 promoter; endogenous in cells
Sequence (P40763 whole entry): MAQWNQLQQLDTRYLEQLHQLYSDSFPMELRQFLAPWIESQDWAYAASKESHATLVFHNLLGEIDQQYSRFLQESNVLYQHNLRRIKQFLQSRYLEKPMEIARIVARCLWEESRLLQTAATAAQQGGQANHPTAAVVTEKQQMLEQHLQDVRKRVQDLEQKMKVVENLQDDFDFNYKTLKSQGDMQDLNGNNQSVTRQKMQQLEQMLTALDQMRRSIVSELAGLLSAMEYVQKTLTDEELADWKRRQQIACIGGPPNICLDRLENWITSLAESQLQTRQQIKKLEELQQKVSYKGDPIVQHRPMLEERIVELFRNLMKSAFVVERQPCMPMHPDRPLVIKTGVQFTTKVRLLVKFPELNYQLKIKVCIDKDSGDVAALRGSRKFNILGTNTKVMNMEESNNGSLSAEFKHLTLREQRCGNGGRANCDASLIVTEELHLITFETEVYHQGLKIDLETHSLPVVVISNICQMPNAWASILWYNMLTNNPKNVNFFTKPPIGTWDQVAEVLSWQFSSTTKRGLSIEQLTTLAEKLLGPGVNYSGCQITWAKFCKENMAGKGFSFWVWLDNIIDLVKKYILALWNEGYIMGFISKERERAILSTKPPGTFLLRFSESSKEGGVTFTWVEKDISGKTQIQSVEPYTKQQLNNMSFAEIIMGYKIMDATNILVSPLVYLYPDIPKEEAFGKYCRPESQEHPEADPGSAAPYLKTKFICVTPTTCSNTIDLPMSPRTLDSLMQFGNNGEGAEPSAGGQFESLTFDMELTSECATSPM
Assay: STAT3 reporter gene assay (luciferase), LNCaP stable cell line (pSTAT3-TA-luc), IL-6 stimulation
Format: cell-based
IC50 overview

Query: // fetch STAT3 (Homo sapiens) IC50 for CC(C)(c1ccc(Br)cc1)c1cc(Cl)cc(NC(=O)c2cc3cc(NS(C)(=O)=O)ccc3s2)c1
Result: 0.12 µM

Query: // fetch STAT3 (Homo sapiens) IC50 for CS(=O)(=O)Nc1ccc2cc(C(=O)Nc3cc(OCC(F)F)cc(S(=O)(=O)c4cccc(OC(F)(F)F)c4)c3)[nH]c2c1
Result: 4 µM

Query: // fetch STAT3 (Homo sapiens) IC50 for CC#Cc1cc(OC(F)(F)F)cc(C(C)(C)c2cc(Cl)cc(NC(=O)c3cc4cc(NS(C)(=O)=O)ccc4s3)c2)c1
Result: 0.02 µM

Query: // fetch STAT3 (Homo sapiens) IC50 for CCn1cccc1C(C)(C)c1cc(Cl)cc(NC(=O)c2cc3cc(NS(C)(=O)=O)ccc3s2)c1
Result: 0.11 µM

All values here come from patent US10562912B2.
